All values here come from BigSolDB 2.1.

settings: in formamide, 313.15 K
Attribute Measured: solubility (mole fraction)
Give the figure only, with no unit attached.

Looking for the measured solubility (mole fraction) of OC[C@H]1O[C@@H](c2ccc(Cl)c(Cc3ccc(O[C@H]4CCOC4)cc3)c2)[C@H](O)[C@@H](O)[C@@H]1O , can you help?
0.000248

---

conditions: in ethyl acetate, 298.15 K
Attribute Measured: solubility (mole fraction)
Give the figure only, with no unit attached.

Looking for the measured solubility (mole fraction) of OC[C@H]1O[C@@H](c2ccc(Cl)c(Cc3ccc(O[C@H]4CCOC4)cc3)c2)[C@H](O)[C@@H](O)[C@@H]1O , can you help?
2.56e-06
